- Test system: normal primary NK cells, pool 3 (3 donors) (IL-2 2.5 ng/mL);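 also: normalised to DMSO-only wells as negative and benzethonium chloride as positive control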
- assay_summary: percent inhibition of viability; higher = more inhibition
- recorded_conditions: 72 h; 10 nM
measurement_type: percent inhibition of viability (%)
Kindly provide the numeric value in % only, without the unit symbol.

Form: molecule = O=c1[nH]cc(F)c(=O)[nH]1 [Fluorouracil] (max concentration tested 10000 nM) ; percent inhibition of viability = 2.62

Form: molecule = CCCCc1nc2cc(/C=C/C(=O)NO)ccc2n1CCN(CC)CC [Pracinostat] (max concentration tested 10000 nM) ; percent inhibition of viability = -4.29

Form: molecule = C=C1C[C@@H]2[C@H](CC[C@]3(C)C(=O)CC[C@@H]23)[C@@]2(C)C=CC(=O)C=C12 [Exemestane] (max concentration tested 10000 nM) ; percent inhibition of viability = -9.04
